Experimental system: β1-adrenergic receptor (Homo sapiens (Human), UniProt P08588)
Sequence (P08588 whole entry, species assumed): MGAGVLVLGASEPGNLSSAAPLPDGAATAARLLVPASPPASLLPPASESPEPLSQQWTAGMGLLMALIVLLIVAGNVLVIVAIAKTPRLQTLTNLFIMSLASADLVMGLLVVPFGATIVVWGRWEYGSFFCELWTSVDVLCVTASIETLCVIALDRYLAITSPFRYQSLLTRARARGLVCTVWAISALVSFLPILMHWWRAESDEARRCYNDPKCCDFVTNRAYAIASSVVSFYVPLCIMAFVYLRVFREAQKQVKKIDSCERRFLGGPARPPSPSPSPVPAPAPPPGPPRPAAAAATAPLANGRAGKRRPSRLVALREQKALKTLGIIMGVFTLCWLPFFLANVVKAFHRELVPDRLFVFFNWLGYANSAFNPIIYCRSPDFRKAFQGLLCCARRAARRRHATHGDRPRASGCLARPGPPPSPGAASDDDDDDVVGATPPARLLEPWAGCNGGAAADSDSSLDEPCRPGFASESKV
Test name: cAMP Gs dynamic HTRF assay, β1 expressing CHO cells
Type: cell-based
Condition: B1-AR; CHO-K1 (HitHunter)
Attribute measured: Average pEC50 [Receptor subtype: B1-AR; Cell type: CHO-K1 (HitHunter)]

Solved cases (6 shown):
CC(C)(C)NC[C@H](O)c1cccc(N2CCOCC2)n1 [Compound 03-157] : A (A > 8)
CC(C)Oc1cccc([C@@H](O)CNC(C)(C)C)n1 [Compound 03-179] : C (C = <7-6)
CC(C)(C)NC[C@H](O)c1cccc(-c2cccc(F)c2)n1 [Compound 03-131] : B (B = 8-7)
CC(C)(COc1ccccc1)NC[C@H](O)c1cccc(C(F)(F)F)n1 [Compound 03-184] : B (B = 8-7)
CC(C)c1ncccc1[C@@H](O)CNC(C)(C)C [Compound 03-51] : D (D < 6)
CC(C)(C)NC[C@@H](O)c1cccc(-c2cccnc2)n1 [Compound 03-152] : D (D < 6)

Can you share its Average pEC50 [Receptor subtype: B1-AR; Cell type: CHO-K1 (HitHunter)]? I mean this compound: CC(C)(C)NC[C@H](O)c1cccc(-c2cccnc2)n1 [Compound 03-151]
B (B = 8-7)

I have this compound here, CC(C)(C)NC[C@H](O)c1cccc(C#N)n1 [Compound 03-5] , and I need its recorded Average pEC50 [Receptor subtype: B1-AR; Cell type: CHO-K1 (HitHunter)].
C (C = <7-6)

State the recorded Average pEC50 [Receptor subtype: B1-AR; Cell type: CHO-K1 (HitHunter)] for this entry: CC(C)(C)NC[C@@H](O)c1cccc(-c2cccc(F)c2)n1 [Compound 03-132]
D (D < 6)
